system: SN12C renal; test: NCI-60 one-dose screen, 48 h (100 = growth as untreated, 0 = no growth, -100 = all killed); details: 10 µM unless noted
Compounds without any hit were thinned out: in the full panel of roughly 83,000, 20% have a hit.

# molecule, unit_of_measure, growth
records = [
    ("O=C(N/N=C/c1ccc(OC(F)F)c(OC2CCCC2)c1)c1cnn2c1NC(c1ccccc1)C2 (centres undefined)", "%", 87.1),
    ("Fc1c[c-]c(-c2ccccn2)c(F)c1.Fc1c[c-]c(-c2ccccn2)c(F)c1.[Cl][Pt+].[Cl][Pt+].c1ccc([PH+](C[PH+](c2ccccc2)c2ccccc2)c2ccccc2)cc1", "%", 5.5),
    ("COC(=O)c1c2c(c(C)[n+]([O-])c1C)C(=O)C(NCc1ccc(O)cc1)=CC2=O", "%", -89.9),
    ("COc1cccc(OC)c1OC(=O)c1ccccc1", "%", 91.2),
    ("O=[N+]([O-])c1ccc(O)c2ncccc12", "%", 35.9),
    ("CCOC(=O)C1=C(C)N2C(=NC3=C(CCCC/C3=C\\c3ccccc3)C2c2ccccc2)S1 (centres undefined)", "%", 101),
    ("O=C1C(N2CCOCC2)=Cc2cccc3cccc1c23", "%", 106),
    ("COc1ccc(-c2nc(Nc3ccc(F)cc3)nc(Nc3ccc4c(c3)nc(C)n4Cc3ccccc3)n2)cc1", "%", 48.4),
    ("CCOC(=O)c1cnn(CC(O)c2ccc(F)cc2)c1NC(=O)Nc1ccccc1F (centres undefined)", "%", 106),
]

---

tested on: HCT-116 colon; test: NCI-60 one-dose screen, 48 h; conditions: 10 µM unless noted
This is part of a sample that, as a whole, favours compounds with a hit. Of some 83,000 tested, about 20% had one in any assay. The source made the active and inactive calls. The calls were made as follows: active = growth percent below 10; inactive = the rest.
Labels: true (1) (active), false (0) (inactive)

# molecule, category
measured = [
    ("O=C1CN2CCC1C/C2=C\\c1ccnc2c(Cl)cccc12 (centres undefined)", "false (0)"),
    ("O=C1/C(=C/c2ccc(F)cc2)CN(Cc2cn(CCNc3ccnc4cc(Cl)ccc34)nn2)C/C1=C\\c1ccc(F)cc1", "true (1)"),
    ("Clc1cccc(Cl)c1Nc1ccc2nnc(-c3ccncc3)n2n1", "false (0)"),
    ("CCOc1ccc(-c2cnnn2-c2nonc2-n2cccc2)cc1", "true (1)"),
    ("Cc1ccc(C(=O)Nc2ccccc2N)cc1", "false (0)"),
    ("COc1cccc(OC)c1OC(=O)c1ccccc1", "false (0)"),
    ("Cn1c2ccc(Cl)cc2c2nn(C(=O)c3ccccc3)c(=O)nc21", "false (0)"),
    ("O=c1nc(NO)[nH]c(=O)n1Cc1ccccc1", "false (0)"),
    ("NC(=S)N/N=C1\\c2ccccc2-c2c(F)c(F)c(F)c(F)c21", "true (1)"),
    ("COc1ccc(-n2ncc3c2ccc2cc(S(=O)(=O)c4ccccc4)c(=O)n(C)c23)cc1", "false (0)"),
    ("Brc1ccccc1Nc1ccc2nnc(-c3ccncc3)n2n1", "false (0)"),
    ("CCC12CCC3c4ccc(O)cc4CCC3C1CC(O)C2O (centres undefined)", "false (0)"),
    ("COc1ncnc2c1ncn2C/C(Br)=C(\\Br)CCl", "true (1)"),
    ("COc1cccc(C2CC(=O)Nc3cc4c(cc32)OCO4)c1OC (centres undefined)", "false (0)"),
    ("CC1(C)CC(=O)C2=C(C1)Nc1cc3c(cc1C2c1ccc(F)cc1)OCO3 (centres undefined)", "false (0)"),
    ("COc1ccc(/C=C2\\SC(=O)N(CN3CCN(c4cc5c(cc4F)c(=O)c(C(=O)O)cn5C4CC4)CC3)C2=O)cc1", "false (0)"),
    ("Oc1cccc(Nc2nc(-c3ccccn3)cs2)c1", "false (0)"),
    ("COc1cc(-c2nc(SC(C)C)nc(Nc3cccc(C)c3)c2C#N)cc(OC)c1OC", "false (0)"),
    ("Cc1ccc(-c2nnc(COc3ccc(-c4nnc(N)s4)cc3)o2)cc1", "false (0)"),
    ("Clc1nc(-c2ccccn2)nc2sc3c(c12)CCCCCC3", "false (0)"),
    ("Nc1nc2c(s1)CCc1c-2c(Br)n(Cc2ccccc2)c1Br", "false (0)"),
    ("COc1cc(/C=C/C(=O)CC(=O)/C=C/c2cc(Br)c(OC)c(OC)c2)cc(Br)c1OC", "false (0)"),
    ("CNc1ccc(Br)cc1-c1n[nH]c(=O)[nH]c1=O", "false (0)"),
    ("Cc1ccc(S(=O)(=O)N2CCc3ccc(O)c4c3C2Cc2cc(Cl)ccc2-4)cc1 (centres undefined)", "false (0)"),
    ("O=C(Nc1ccccc1)Oc1cccc2cccnc12", "true (1)"),
    ("CCOC(=O)C(CC(c1ccccc1)N1CCCCC1)[N+](=O)[O-] (centres undefined)", "false (0)"),
    ("O=C1/C(=C/c2ccc([N+](=O)[O-])cc2)Oc2ccc(O)cc21", "true (1)"),
    ("O=C1NC(=S)S/C1=C\\c1cccc([N+](=O)[O-])c1", "false (0)"),
    ("COc1ccc(/C=N/OCC(O)CN2CCC(O)CC2)cc1OC1CCCC1 (centres undefined)", "false (0)"),
    ("C[C@@H](Oc1cc(-c2cnn(C3CC4(CNC4)C3)c2)cnc1N)c1c(Cl)ccc(F)c1Cl", "false (0)"),
    ("COc1ccc(C2SC(C)C(=O)N2CCc2cccs2)cc1OC (centres undefined)", "false (0)"),
    ("O=C1C(Cl)=C(NCCCN2CCOCC2)C(=O)c2ccccc21", "false (0)"),
    ("O=S(=O)(Nc1ccc(Cl)c(Cl)c1)c1ccc(-c2cnc(C3CC3)o2)cc1", "false (0)"),
    ("COC(=O)[C@@]12CC[C@@H](C)[C@]3(C[C@@H](c4ccoc4)OC3=O)[C@H]1CC[C@@H]1O[C@@]12C", "false (0)"),
    ("O=[N+]([O-])c1ccc(O)c2ncccc12", "false (0)"),
    ("COc1cc2cc(Oc3ccc(NC(=O)Nc4ccc(Cl)c(C(F)(F)F)c4)cc3)c(C)nc2cc1OCCN1CCCCC1", "true (1)"),
    ("CN1CCN(CCCn2c3c(sc4ncccc43)c(=O)n3nnc(-c4ccccc4)c23)CC1", "true (1)"),
    ("O=C1c2ccccc2-c2nnc(-c3ccc(Br)cc3)cc21", "true (1)"),
    ("Cc1ccc(S(=O)(=O)N2CCc3ccc(O)c4c3C2Cc2ccc3c(c2-4)OCO3)cc1 (centres undefined)", "false (0)"),
    ("O=C1/C(=C/c2ccccc2F)CNC/C1=C\\c1ccccc1F", "true (1)"),
    ("NC(=O)c1cc(Cl)ccc1NC(=O)COc1ccccc1", "false (0)"),
    ("O=C(c1ccc2ncc(-c3nc(NC4CC4)ncc3F)n2c1)N1CCOCC1", "true (1)"),
    ("N#CCCN1CCN(CCC#N)C1=S", "false (0)"),
    ("CCCCC1COc2cccc3c(SCC(=O)N(C)c4cccc5ccccc45)cc[n+]1c23 (centres undefined)", "false (0)"),
]

---

system: 786-0 renal; experiment: NCI-60 one-dose screen, 48 h; details: 10 µM unless noted
The panel holds about 83,000 compounds, 20% with a hit somewhere; the sample as a whole holds those more often. Active and inactive are the calls of the source. How the source made its calls: active means growth percent below 10; inactive means the rest.
Classes used: active, inactive

# molecule, category
measured = [
    ("COc1ccc(/C=N/NC(=O)c2cnn(CC(O)Cc3ccccc3)c2N)cc1OC1CCCC1 (stereo unspecified)", "inactive"),
    ("O=C(NC1CC1)c1cc2n(n1)CC(c1ccccc1)N2 (stereo unspecified)", "inactive"),
    ("COc1ccc(-c2nc3sccn3c2/C=C/C(=O)c2cc(OC)c(OC)c(OC)c2)cc1OC", "inactive"),
    ("COc1ncc(F)c(OC)n1", "inactive"),
    ("O=c1oc2ccccc2cc1-c1csc(N/N=C/c2cc3ccccc3nc2Cl)n1", "inactive"),
    ("O=C1C=CC(=O)N1CCCCCCCCCCN1C(=O)C=CC1=O", "inactive"),
    ("c1ccc(-c2n(Cc3ccc4ccccc4c3)c3ccccc3[n+]2Cc2ccc3ccccc3c2)cc1", "active"),
    ("COc1cc2nc(SCc3cc(OC)c(OC)c(OC)c3)n(-c3ccccc3OC)c(=O)c2cc1OC", "inactive"),
    ("C(=C\\c1ccccc1)/CN1CCN(C(c2ccccc2)c2ccccc2)CC1", "inactive"),
    ("CCOc1ccc(-c2cnnn2-c2nonc2-n2cccc2)cc1", "inactive"),
    ("CC(=O)OC[C@H](O)[C@@]1(O)CC[C@H]2[C@@H]3CCC4=CC(=O)CC[C@]4(C)[C@H]3[C@@H](O)C[C@@]21C", "inactive"),
    ("O=C(N/N=C/c1ccc(F)cc1)c1[nH]c2ccc(I)cc2c1-c1ccccc1", "inactive"),
    ("Cc1ccc(N(CSc2ccc(Cl)cc2)CSc2ccc(Cl)cc2)cc1", "inactive"),
    ("c1ccc2c(c1)oc1cc3c(cc12)nnc1cccn13", "inactive"),
    ("COc1cc2cc(Oc3ccc(NC(=O)Nc4ccc(Cl)c(C(F)(F)F)c4)cc3)c(C)nc2cc1OCCN1CCCCC1", "active"),
    ("COc1cccc(C2C3=C(COC3=O)N(CCO)c3cc4c(cc32)OCO4)c1 (stereo unspecified)", "inactive"),
    ("N#Cc1c(O)c2c(c(O)c1C#N)C(=O)c1ccccc1C2=O", "inactive"),
    ("O=C(Nc1ccc(Cl)c(Cl)c1)NC(CO)(CO)CO", "inactive"),
    ("Cc1ccc(S(=O)(=O)c2ccc3[nH]c(=O)[nH]c(=O)c3c2)cc1", "inactive"),
    ("COc1cc(C(=O)/C=C/c2c(-c3cccs3)nc3sccn23)cc(OC)c1OC", "active"),
    ("O=C(N/N=C(\\CS(=O)(=O)c1ccccc1)c1cc2cc(Br)ccc2oc1=O)c1ccccc1", "inactive"),
]

From: PubChem BioAssay (NCI)
